# assay.details: MRP1 drug-resistance reversers in H69AR cells – cell-based, doxorubicin co-treatment, pilot screen (AID 601)
# measurement.context: H69AR cells + 2 uM doxorubicin, CellTiter-Glo, 72 h; measured here: viability with 2 uM doxorubicin; at 10 µM; stronger effect = lower value
Provide the recorded viability for the entries that follow.

Record excerpt, results attached:
[[record]]
compound = "Cc1ccc(S(=O)(=O)Cc2ccc(C(=O)N3CCN(Cc4ccccc4)CC3)o2)cc1"
test_result = "94.6%"

[[record]]
compound = "CCN(CC)C(=O)COc1ccc2oc(C)c(C(=O)OC(C)C)c2c1"
test_result = "78.8%"

[[record]]
compound = "NC(=O)C1CCN(C(=O)c2cc3n(n2)C(C(F)(F)F)CC(c2ccco2)N3)CC1 (stereo not drawn)"
test_result = "85.8%"

[[record]]
compound = "C/C=C/COC(=O)c1[nH]c2c(c1C)C(=O)CC(c1ccco1)C2 (stereo not drawn)"
test_result = "40.2%"

[[record]]
compound = "COc1ccccc1NC(=O)N1CCN(c2cccc(C(F)(F)F)c2)CC1"
test_result = "78.2%"


Please look at the items below and tell me viability for each one, in order.
1. C/C=C/Cn1c(SCCCc2ccccc2)nc2c1c(=O)[nH]c(=O)n2C
2. CS(=O)(=O)NCCSCc1c(F)cccc1Cl
3. CCOc1ccc(NS(=O)(=O)c2cc(Cl)ccc2OC)cc1
4. CN(C)CCCNC(=O)CCC1CCCCC1
5. CCC1CCCCN1CCNS(=O)(=O)c1ccc2c(c1)oc(=O)n2C (stereo not drawn)
6. CC(C)c1nnc(NC(=O)C2CCCCC2)s1
7. CCc1ccccc1NC(=O)c1cnc2n(c1=O)CCS2

output:
["68.8%", "89.7%", "92.9%", "84.9%", "85.1%", "93.8%", "88.1%"]

Hi team, please reply with viability for each item in this list.
1. Cc1ccc(CCP(=O)(O)CN2CCOCC2)cn1
2. O=C(O)CC(C(=O)Nc1cccc(C(F)(F)F)c1)C1CCCO1 (stereo not drawn)
3. CCOC(=O)CN1CC23C=CC(O2)C(C(=O)Nc2ccc(OCC)cc2)C3C1=O (stereo not drawn)
4. COc1ccc(OCCCC(=O)Nc2nncs2)cc1
5. O=C(CCCn1c(=O)c2sccc2n(Cc2cc(=O)n3ccccc3n2)c1=O)NCc1ccco1
6. O=C1CCCC2=C1C(c1cccs1)n1nc(SCc3ccccc3F)nc1N2 (stereo not drawn)

output:
["91.4%", "94.3%", "89.2%", "83.1%", "80%", "15.6%"]

====

# assay.details: S. cerevisiae growth inhibition in restrictive medium, OD615, pilot screen, restrictive growth control, yeast lifespan reduction project (AID 706);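 also: modified DeaD lifespan yeast strain shifted to restrictive glucose medium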
# measurement.context: OD615, 48 h, at 10 µM, stronger effect = higher value
measure.name: growth inhibition (%)
Answers are plain numbers, in %.

Dear colleague, could you please provide growth inhibition for the compounds listed below?
1. O=C(c1ccc(CS(=O)(=O)c2c(Cl)cccc2Cl)o1)N1CCCC1
2. CC(C)CCn1c(NCCc2ccccc2)nc2c1c(=O)n(C)c(=O)n2C
3. Cc1ccc(C)c(N2CCN(CCCNC(=O)Cn3cc4c(n3)CCC(C)C4)CC2)c1 (stereo not drawn)
4. CCN(CCNC(=O)Cn1c(=O)sc2ccccc21)c1ccccc1
5. COC(=O)c1ccc(/C=N/n2cnnc2)cc1
6. COC(=O)CN1C(=O)C(O)(CC(=O)c2ccc(Cl)cc2)c2ccccc21 (stereo not drawn)
7. Cc1cc(NC(=O)COc2cccc(C)c2C)no1
8. Cc1ccc(C(c2sc3ncnn3c2O)N2CC(C)CC(C)C2)cc1 (stereo not drawn)

output:
-21
8.48
10.4
2.42
-20
-8.47
6.53
-6.62

I need growth inhibition for every entry listed below, if you could help.
1. CCn1cc(C(=O)N2CCCC2)c(=O)c2cc(S(=O)(=O)N(C)C)ccc21
2. OC(CNCCc1ccccc1)c1ccccc1 (stereo not drawn)
3. CC1CCCCN1CCNC(=O)c1ccc2c(=O)n(CCc3ccccc3)c(=O)[nH]c2c1 (stereo not drawn)
4. CCOC(=O)c1oc2c(CN3CCN(C)CC3)c(O)ccc2c(=O)c1-c1ccccc1OC
5. CN(CCCNC(=O)c1cn(C)c2ccc(S(=O)(=O)N(C)C)cc2c1=O)c1ccccc1

output:
[6.6, -6.08, -18.5, -15.5, -0.125]

====

# assay.details: doxorubicin toxicity protection in MRP-1 cells – H69AR cells, CellTiter-Glo, duplicate, MRP-1 activator project, pilot screen (AID 807);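 also: compound pretreatment 18-22 h then 72 h combined with doxorubicin; 0% = doxorubicin alone and 100% = vehicle without doxorubicin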
# measurement.context: H69AR viability with doxorubicin, CellTiter-Glo luminescence; at 10 µM
Activity calls are given as the source filed them.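 Rule for the calls: active = viability increase at or above a cutoff of the median across tested compounds plus 3 SD (cut at about 8.5% in these data, passing the limit was not always enough); inconclusive = some gains above the cutoff, reason not given; inactive = the rest.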
Respond with a class label; see label 1 = active, label 0 = inactive

Solved entries:
[[record]]
compound = "CCOc1ccc(-c2cc(CCCC(=O)N3CCN(c4ccc(OC)cc4)CC3)no2)cc1"
cat = "label 0"

[[record]]
compound = "Cc1cc(C)n2nc(S(=O)(=O)N(C)c3ccccc3)nc2n1"
cat = "label 0"

[[record]]
compound = "Oc1c(C(c2cccs2)N2CCN(c3ccc(F)cc3)CC2)sc2ncnn12 (stereo unspecified)"
cat = "label 1"


input: What was the test verdict on CCOC(=O)/C=C1\CC(=O)Nc2nonc2N1 ?
output: label 0

input: Query: recorded result category for Cn1c(SCC(=O)c2cc3ccccc3o2)nnc1-c1ccccc1 in this test
output: label 0

====

# assay.details: yeast transport mutant growth inhibition pilot in 384-well plates, post-Golgi transport modulator project (AID 636)
# measurement.context: absorbance 615 nm, about 18 h, stronger effect = higher value
The source made the active and inactive calls. Rule as the data show it: active = inhibition above about 31%; inactive = the rest.
measure.name: inhibition

Observe how each entry below is paired with its result.
[[record]]
molecule = "Cc1cc(C)cc(N(CC(=O)Nc2cccc(C)n2)S(=O)(=O)c2c(C)noc2C)c1"
test_result = "-0.64% (inactive)"

[[record]]
molecule = "CN(C)c1oc(-c2ccccc2F)nc1C#N"
test_result = "-2.8% (inactive)"

[[record]]
molecule = "Cc1cc(C)n2c(SCCN3C(=O)c4ccccc4C3=O)nnc2n1"
test_result = "-0.51% (inactive)"

[[record]]
molecule = "CCOC(=O)N1CCN(C(=O)CSc2nnc(COc3ccccc3)o2)CC1"
test_result = "2.67% (inactive)"

[[record]]
molecule = "CCN1CCN(C(c2cccs2)C(C)NC(=O)c2ccccc2)CC1 (stereo unspecified)"
test_result = "-0.26% (inactive)"


Items follow; give inhibition for each.
1. Cc1nc2ccc(S(=O)(=O)NC(C(=O)NCc3cccs3)C(C)C)cc2s1 (stereo unspecified)
2. CCOC(=O)C(C)Sc1nnc(Cc2cc(=O)[nH]c(=O)[nH]2)n1-c1ccc(Cl)cc1 (stereo unspecified)
3. COC(=O)c1ccc(NC(=O)C2C3CCC(C3)C2C(=O)O)cc1 (stereo unspecified)
4. CSc1ccccc1NC(=O)C1CCCO1 (stereo unspecified)
5. COC1CCCCC1Nc1cccc(SC)c1 (stereo unspecified)
6. Cc1cc(C)n2nc(S(=O)(=O)N(C)c3ccccc3)nc2n1

output:
1: -5% (inactive); 2: 1.54% (inactive); 3: 2.13% (inactive); 4: 1.73% (inactive); 5: -3.25% (inactive); 6: -5.6% (inactive)

====

# assay.details: Her2 expression decrease, cell viability multiplex – SKBR3 breast tumor cells, AlphaScreen, ATP viability, primary screen (AID 461);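 also: percent of carrier control wells set as 100% viability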
# measurement.context: SKBR3 Her2 protein level, 18-24 h, measured here: SKBR3 viability, ATP luminescence, at 10 µM
Consider the following compounds; for each one, report its viability.
Answers are plain numbers, in %.

For orientation, consider the following solved cases.
[[record]]
compound = "Cn1cnc2cc(NC(=O)c3ccc(Cl)cc3)ccc21"
uom = "%"
test_result = 91.5

[[record]]
compound = "CCOc1ccc(-c2cc(CCCC(=O)N3CCN(c4ccc(OC)cc4)CC3)no2)cc1"
uom = "%"
test_result = 85

[[record]]
compound = "Cc1ccc(C)c2[nH]c(=O)c(CCNC(=O)c3ccc(S(=O)(=O)N(C)C)cc3)cc12"
uom = "%"
test_result = 121


Please state viability for every compound in the list that follows.
1. CCC(C)OC(=O)C1=C(C)NC2=C(C(=O)C(C(=O)OC)C(C)C2)C1c1ccc(N(C)C)cc1 (stereo not given)
2. CC(NC(=O)c1cc2c(=O)n(C)c3ccccc3c2n1C)c1ccc2c(c1)OCCO2 (stereo not given)

output:
1: 94.5; 2: 94.5

====

# assay.details: viability of HCT116 without oncogenic beta-catenin – human colon tumor cells, pilot screen (AID 823);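 also: 0% = wells killed by 20 µM Hyamine and 100% = untreated DMSO cell wells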
# measurement.context: HCT116 beta-catenin knockout viability, CellTiter-Glo, 60 h; at 10 µM; stronger effect = lower value
Records with an inconclusive call do not appear.
Task for the reader: assign each of the following compounds its reported viability.
Answers are plain numbers, in %.

Report viability for each item below.
1. COCCCNC(=O)c1ccc(CS(=O)(=O)c2ccc(OC)cc2)o1
2. CN(C1CCCCC1)S(=O)(=O)c1ccc(S(=O)(=O)N2CCN(CCC#N)CC2)cc1
3. CCn1c(=O)c2cc(C(=O)NCCN3CCOCC3)sc2c2ccccc21
4. COc1ccc(-c2cn3c(C)c(C(=O)N4CCN(c5ccc(F)cc5)CC4)sc3n2)cc1
5. O=C1CC(Nc2ccc(N3CCOCC3)cc2)C(=O)N1c1cccc(C(F)(F)F)c1 (stereo not drawn)

output:
[98.6, 97.2, 92.2, 101, 110]

The reported measurements were obtained from PubChem BioAssay.
